Cited source for all entries: ChEMBL document CHEMBL3352492

# Assay Procedure: Selectivity index, ratio of LD50 dark toxicity against mouse Colon 26 cells to EC50 for Photo-toxicity against mouse Colon 26 cells 1 Jcm'-2 of continuous illumination with 350 to 700 nm light
# Format: cell-based
# Particulars: read-out: Ratio LD50/EC50
Kindly state selectivity ratio for each of the entries shown.
// no unit, no text: just the number

So what's the measured selectivity ratio for this one? CCN(CC)C(=O)c1ccc(-c2c3ccc(=[N+](C)C)cc-3[se]c3cc4c(cc23)C(C)(C)CCN4C)s1.[Cl-]
26

Find the recorded selectivity ratio belonging to CCN(CC)C(=S)c1ccc(-c2c3ccc(=[N+](C)C)cc-3[se]c3cc4c(cc23)C(C)(C)CCN4C)s1.[Cl-] and report it.
56
